B1: Ankyrin repeat and SAM domain-containing protein 6, residues 774 to 836; numbered along this chain, Q68DC2 (parent)
chain: DEDELTGILKKLSLEKYQPIFEEQEVDMEAFLTLTDGDLKELGIKTDGSRQQILAAISELNAG

# Variants of: B1
# experiment.summary: abundance fitness (aPCA) (normalised: wild type 0, dead -1); higher = more abundant; growth selection in yeast, the domain comes from the species named
# assay.setup: Homo sapiens

mutation.notation | abundance fitness
L9Q | -0.876
V26F | -0.177
L5D | -1.01
E59D | -0.078
E25D | -0.159
E2M | 0.565
T33Q | -0.071
L54Q | -0.273
L39F | -0.616
G7T | 0.111
Y17A | -0.561
S49H | 0.009
I57Q | -0.116
Q24I | -0.47
F21L | -0.222
K11Y | -0.553
I57A | -0.248
F21G | -0.579
S13D | 0.131
L39E | -0.625
L14F | -0.583
D1S | 0.045
D27C | -0.376
L12H | 0.171
E4N | -0.838
K16F | -0.339
K11L | -0.363
E22W | -0.743
E59Y | 0.02
S13W | -0.472
M28V | -0.219
Q51D | -0.076
G37K | 0.033
G48S | 0.007
D36G | -0.405
I53L | -0.002
E15L | -0.185
F31G | -0.443
P19A | -0.073
P19H | 0.005
L14H | -1.01
L32N | -0.295
M28D | -0.466
E4I | 0.179
M28R | -0.159
E41I | -0.472
D1L | 0.223
Q18S | -0.075
Y17H | -0.505
D47V | -0.049
K10C | -1.01
G63F | -0.532
E15I | -0.323
L54R | -0.337
Q24S | -0.033
I8M | 0.145
I8N | -0.192
N61D | -0.297
Y17S | -0.49
K11S | -0.305
I8Q | 0.105
A30L | -0.089
A62S | -0.09
E41Q | 0.044
R50F | -1
D38E | -0.072
E25C | -0.073
L54D | -0.59
M28T | 0.007
P19F | -0.285
K45G | -0.114
V26T | -0.479
D47H | 0.042
T35Q | -0.026
L5E | -1.07
I57K | -0.349
A62C | -0.017
F21S | -0.615
E15V | -0.36
D47A | -0.061
G7L | 0.102
F31C | -0.797
F31M | -0.329
T46W | -0.521
D38H | -0.418
G63I | -0.161
L60W | 0.031
T46Y | -0.197
A30S | -0.015
I57N | -0.437
A55K | 0.112
